# MMP-2 (%) per entry
- System: MMP-2
- procedure text: Inhibition of MMP-2 biosynthesis after UV irradiation (gelatin zymography)
- Assay type: cell-based
- measurement setup: human keratinocytes, UV-B 30 mJ/cm^2, 10 ppm test substance, 2 days; UV control = 100
- Experimental: After 24 hours, the plate was irradiated by UV-B at 30 mJ/cm^2. The media were exchanged with new medium containing 10 ppm of each test substance. After 2 days of cultivation, each supernatant was harvested and subjected to the zymography using gelatine gel to obtain produced MMP-2 and MMP-9, quantities of which were then measured by a densitometer.
Reply with just the number (in %).

| molecule | MMP-2 (%) |
| --- | --- |
| O=c1c(O)c(-c2cc(O)c(O)c(O)c2)oc2cc(O)cc(O)c12 [Myricetin, myricetin] | 51 |
| O=C(O[C@@H]1Cc2c(O)cc(O)cc2O[C@@H]1c1cc(O)c(O)c(O)c1)c1cc(O)c(O)c(O)c1 [EGCG, epigallocatechin gallate] | 52 |
| O=C(O[C@@H]1Cc2c(O)cc(O)cc2O[C@H]1c1ccc(O)c(O)c1)c1cc(O)c(O)c(O)c1 [CG, catechin gallate] | 53 |

The record that follows has no MMP-2 (%) shown yet.
Query MMP-2 (%) on MMP-2 for O=C(O[C@@H]1Cc2c(O)cc(O)cc2O[C@H]1c1cc(O)c(O)c(O)c1)c1cc(O)c(O)c(O)c1 [GCG, gallocatechin gallate]
53
